System: Salmonella enterica subsp. enterica serovar Typhimurium
PROCEDURE_SUMMARY: Inhibition of SPI-1 T3SS in Salmonella typhimurium assessed as reduction in SPI-1 T3SS substrates by measuring SipC protein level at 5 to 100 uM after 4 hrs by Coomassie staining based SDS-PAGE method
Calls of active or inactive are those of the source. The rule behind the calls is not given here.
OBSERVABLE: inhibition

O=C(O[C@@H]1Cc2c(O)cc(O)cc2O[C@@H]1c1cc(O)c(O)c(O)c1)c1cc(O)c(O)c(O)c1 [EPIGALOCATECHIN GALLATE]
Dose-dependent effect
O=C(O[C@@H]1Cc2c(O)cc(O)cc2O[C@@H]1c1ccc(O)c(O)c1)c1cc(O)c(O)c(O)c1
Dose-dependent effect
O=c1cc(-c2ccccc2)oc2cc(O)c(O)c(O)c12
Active
O=C(N/N=C/c1cc(Br)cc(Br)c1O)c1ccc([N+](=O)[O-])cc1
Active

###

System: Salmonella enterica subsp. enterica serovar Typhimurium
PROCEDURE_SUMMARY: Inhibition of SPI-1 T3SS in Salmonella typhimurium assessed as reduction in SPI-1 T3SS substrates by measuring SipA protein level at 5 to 100 uM after 4 hrs by Coomassie staining based SDS-PAGE method
Calls of active or inactive are those of the source. No cut-off for these calls is given here.
OBSERVABLE: inhibition

O=C(N/N=C/c1cc(Br)cc(Br)c1O)c1ccc([N+](=O)[O-])cc1
Active
O=C(O[C@@H]1Cc2c(O)cc(O)cc2O[C@@H]1c1ccc(O)c(O)c1)c1cc(O)c(O)c(O)c1
Dose-dependent effect
O=c1cc(-c2ccccc2)oc2cc(O)c(O)c(O)c12
Active
O=C(O[C@@H]1Cc2c(O)cc(O)cc2O[C@@H]1c1cc(O)c(O)c(O)c1)c1cc(O)c(O)c(O)c1 [EPIGALOCATECHIN GALLATE]
Dose-dependent effect

###

Test system: Salmonella enterica subsp. enterica serovar Typhimurium
PROCEDURE_SUMMARY: Inhibition of SPI-1 T3SS in Salmonella typhimurium assessed as reduction in SPI-1 T3SS substrates by measuring SipB protein level at 5 to 100 uM after 4 hrs by Coomassie staining based SDS-PAGE method
The source made the active and inactive calls. The calls are words filed in the database; no cut-off is given here.
OBSERVABLE: inhibition

O=C(N/N=C/c1cc(Br)cc(Br)c1O)c1ccc([N+](=O)[O-])cc1
Active
O=C(O[C@@H]1Cc2c(O)cc(O)cc2O[C@@H]1c1ccc(O)c(O)c1)c1cc(O)c(O)c(O)c1
Dose-dependent effect
O=c1cc(-c2ccccc2)oc2cc(O)c(O)c(O)c12
Active
O=C(O[C@@H]1Cc2c(O)cc(O)cc2O[C@@H]1c1cc(O)c(O)c(O)c1)c1cc(O)c(O)c(O)c1 [EPIGALOCATECHIN GALLATE]
Dose-dependent effect

###

System: Salmonella enterica subsp. enterica serovar Typhimurium
PROCEDURE_SUMMARY: Inhibition of SPI-1 T3SS in Salmonella typhimurium assessed as reduction in SPI-1 T3SS substrates by measuring SopB protein level at 5 to 100 uM after 4 hrs by Coomassie staining based SDS-PAGE method
Calls of active or inactive are those of the source. The rule behind the calls is not given here.
OBSERVABLE: inhibition

O=C(N/N=C/c1cc(Br)cc(Br)c1O)c1ccc([N+](=O)[O-])cc1
Active
O=C(O[C@@H]1Cc2c(O)cc(O)cc2O[C@@H]1c1cc(O)c(O)c(O)c1)c1cc(O)c(O)c(O)c1 [EPIGALOCATECHIN GALLATE]
Dose-dependent effect
O=C(O[C@@H]1Cc2c(O)cc(O)cc2O[C@@H]1c1ccc(O)c(O)c1)c1cc(O)c(O)c(O)c1
Dose-dependent effect
O=c1cc(-c2ccccc2)oc2cc(O)c(O)c(O)c12
Active
